Values from ChEMBL document CHEMBL1201862

System: M19-MEL
Assay: NCI tumour cell line growth inhibition, 48 h
The source made the active and inactive calls. Cut-off read from the data, not from the text of the source: active = GI50 up to about 1.1 µM and inactive = higher.
Endpoint name: GI50

Quick check: GI50 of `CC(C)(c1ccccc1)c1ccc(Oc2ccc(C#N)c(C#N)c2)cc1` ?
79.1 µM (inactive)

Quick check: GI50 of `O=C1c2c(n(Cc3ccccc3)c(=O)n2Cc2ccccc2)C(=O)N1Cc1ccccc1` ?
> 100 µM (inactive)

Quick check: GI50 of CCOC(=O)C12CCC(=O)C=C1[C@@H](C)C(=O)CC2 (some centres undefined) ?
> 100 µM (inactive)

Quick check: GI50 of `Clc1ncnc2c1ncn2CCCCCCCCCCCCn1cnc2c(Cl)ncnc21` ?
2.27 µM (inactive)

Quick check: GI50 of `COc1ccc2nc3cc(Cl)ccc3c(Sc3ccc([N+](=O)[O-])cc3)c2c1` ?
> 10 µM (inactive)

Quick check: GI50 of `O=C(Cn1ccnc1[N+](=O)[O-])N(CCO)CCO` ?
> 1250 µM (inactive)

Quick check: GI50 of `O=C(CCCCCCCCCCc1ccccc1)c1c(O)cccc1O` ?
20.7 µM (inactive)

Quick check: GI50 of `CCOC(=O)/C(=C\c1ccc[nH]1)C(=O)c1ccccc1` ?
> 100 µM (inactive)

Quick check: GI50 of O=C1Sc2ccccc2C(=O)N2CCSC12 (centres undefined) ?
> 100 µM (inactive)

###

Each entry below lists one item and its recorded GI50 value.
System: PC-3
Test: NCI tumour cell line growth inhibition, 48 h
Active and inactive are the calls of the source. Cut-off read from the data, not from the text of the source: active = GI50 up to about 1.1 µM and inactive = higher.

Solved cases below.
>>> df
                                   molecule          measurement
0  COC(=O)c1ccccc1C1CN=NC12Cc1c(C)c3c(c(C)c1C2=O)CCC3 (stereo unspecified)  > 100 µM (inactive)
1  CCCC1NC(=O)C(CC(C)C)NC(=O)c2cccc(n2)C(=O)NC(CC(C)C)C(=O)NC(CCC)C(=O)NC(C(=O)OC)CCCCNC1=O (stereo unspecified)   25.3 µM (inactive)
2  CC(C)(C)CC(C)(C)c1cc(O)c(O)c(CN2CCCCC2)c1   13.9 µM (inactive)
3  NC(CCCCCP(=O)(c1ccccc1)C1C=CC=CC1)C(=O)O (stereo unspecified)  > 100 µM (inactive)
4  COc1ccc(C23OCC(Cc4cc(OC)c(OC)cc42)C3CO)cc1OC (stereo unspecified)  > 100 µM (inactive)

Turning now to a further record.
Lab request: please report GI50 under test system PC-3 for `Fc1ccc(Nc2nnc(-c3ccccn3)s2)cc1`
> 100 µM (inactive)

###

Each entry below lists one item and its recorded GI50 value.
Test system: HOP-62
Experiment: NCI tumour cell line growth inhibition, 48 h
Activity calls are given as the source filed them. Cut-off read from the data, not from the text of the source: active = GI50 up to about 1.1 µM and inactive = higher.

Solved cases below.
Compound	GI50
O=C(ON=c1c2ccccc2ccc2ccccc12)c1cc([N+](=O)[O-])cc([N+](=O)[O-])c1	> 100 µM (inactive)
Cc1cc(O)c(C(=O)CC2(O)C(=O)Nc3c(Cl)cc(Cl)cc32)c(=O)o1 (stereo not given)	> 100 µM (inactive)
O=C(c1ccco1)c1ccccc1C(=O)c1ccco1	> 100 µM (inactive)

Quick check: GI50 of `Cc1ccc(C(=O)OCC(C)C)cc1/N=N/N(C)C` ?
67.8 µM (inactive)

Quick check: GI50 of CC1CCC2C(C)C(=O)OC2C2(C)C(=O)C=CC12 (stereo not given) ?
> 10 µM (inactive)

Quick check: GI50 of `O=S(=O)(O)c1cc(O)c2c(O)c(/N=N/c3ccc(/C=C/c4ccc(/N=N/c5c(S(=O)(=O)O)cc6cc(S(=O)(=O)O)cc(O)c6c5O)cc4S(=O)(=O)O)c(S(=O)(=O)O)c3)c(S(=O)(=O)O)cc2c1` ?
> 100 µM (inactive)

Quick check: GI50 of `Cc1ccc(/C=N/NS(=O)(=O)c2ccccc2)c(C)c1` ?
> 100 µM (inactive)

Quick check: GI50 of `O=C1O[C@H](c2ccc3c(c2)OCO3)[C@H]2CO[C@@H](c3ccc4c(c3)OCO4)[C@@H]12` ?
> 100 µM (inactive)

Quick check: GI50 of CC(C)(C)COC1C2(OCCO2)C2CCC1(C)C2(C)C (stereo not given) ?
22.1 µM (inactive)

Quick check: GI50 of OC1c2ccccc2C2(O)C1C(c1ccccc1)C(c1ccccc1)C2(O)c1ccccc1 (stereo not given) ?
13.2 µM (inactive)

Quick check: GI50 of COC(=O)C(CC(=O)c1cc2c(cc1I)OCO2)Cc1cc(OC)c(OC)c(OC)c1I (stereo not given) ?
> 100 µM (inactive)

Quick check: GI50 of `Cn1c(NNc2ccccc2)cc(=O)[nH]c1=O` ?
> 100 µM (inactive)

Quick check: GI50 of `COC(=O)C1=C(C(=O)OC)SC2(S1)C1=C(CCC1)SC(C(=O)OC)=C2C(=O)OC` ?
12.7 µM (inactive)

Quick check: GI50 of O=NN(CCF)C(=O)NC1CC2CCC1C2 (stereo not given) ?
> 84.1 µM (inactive)

Quick check: GI50 of `Cc1nc2cc(/N=N/c3c(C)noc3C)ccc2[nH]1` ?
27.1 µM (inactive)
